Target: M. mazei PylRS (wild-type) (Methanosarcina mazei, UniProt Q8PWY1)
Sequence (Q8PWY1 whole entry E444G, looked up): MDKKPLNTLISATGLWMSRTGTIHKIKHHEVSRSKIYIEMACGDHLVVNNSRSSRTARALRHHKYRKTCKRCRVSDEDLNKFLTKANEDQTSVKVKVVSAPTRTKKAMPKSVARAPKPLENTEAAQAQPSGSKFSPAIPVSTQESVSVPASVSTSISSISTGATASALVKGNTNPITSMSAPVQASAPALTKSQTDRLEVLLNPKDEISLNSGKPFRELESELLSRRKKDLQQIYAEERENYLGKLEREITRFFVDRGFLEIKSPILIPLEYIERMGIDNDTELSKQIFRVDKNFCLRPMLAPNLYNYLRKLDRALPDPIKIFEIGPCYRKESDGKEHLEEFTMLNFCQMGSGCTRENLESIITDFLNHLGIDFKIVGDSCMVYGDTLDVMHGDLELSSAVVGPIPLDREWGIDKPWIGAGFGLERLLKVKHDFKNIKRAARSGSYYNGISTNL
Assay type: biochemical
Details: 37 degrees Celsius 1 h; 0.5 M Lys; 100 mM Ac-Lys; 1 mM Boc-Lys; 1 mM Aloc-Lys; 10 mM Nic-Lys; 7 mM Nma-Lys; 3.5 mM Z-Lys; 1 mM pyrrolysine
measured-metric: activation of amino acid / esterification of tRNA^Pyl by wild-type PylRS

[
  {
    "line-notation": "CNc1ccccc1C(=O)NCCCC[C@H](N)C(=O)O",
    "experimental-system": "M. mazei PylRS (wild-type) (Methanosarcina mazei, UniProt Q8PWY1)",
    "val": "esterified"
  },
  {
    "line-notation": "CC(=O)NCCCC[C@H](N)C(=O)O",
    "experimental-system": "M. mazei PylRS (wild-type) (Methanosarcina mazei, UniProt Q8PWY1)",
    "val": "esterified"
  }
]

Taken from patent US9133449B2.
